system: HepG2; experiment: cell viability relative to DMSO; higher = less toxic; settings: 72 h; 10000 nM
Could you please mark yes (1) for values of cell viability below 90% and no (0) for values at or above it?

Request: I'd appreciate it if you could check whether CC(=O)N1CCC[C@H]1C(=O)N[C@@H](Cc1cnc[nH]1)C(=O)N[C@@H](CO)C(=O)N[C@@H](CS)C(=O)N[C@@H](CC(N)=O)C(N)=O [ATN-161] has cell viability smaller than 90%.
Response: no (0)

Request: Confirm or reject: cell viability of Cc1[nH]nc(C(F)(F)F)c1Cc1sc2c(c1C(=O)N1C[C@](C)(O)CO1)c(=O)n(C)c(=O)n2C(C)C [AZD3965] lies strictly below 90%
Response: no (0)

Request: Lab log: compare recorded cell viability with 90%; is it strictly lower for C[C@@H](O)[C@H]1C(=O)N2C(C(=O)O)=C(SCCNC=N)C[C@H]12 [imipenem] ?
Response: no (0)

New cases:
Request: Just wondering, is cell viability of O=C(O)COCCN1CCN(C(c2ccccc2)c2ccc(Cl)cc2)CC1 (stereo unspecified) [cetirizine] below 90%?
Response: no (0)

Request: Is it true that cell viability reported for Cc1nc2n(c(=O)c1CCN1CCC(c3noc4cc(F)ccc34)CC1)CCCC2O (stereo unspecified) [paliperidone] is less than 90%?
Response: no (0)

Request: Hello, I'm reviewing records and need to know if cell viability of CCN1CCN(Cc2ccc(-c3cc4c(N[C@H](C)c5ccccc5)ncnc4[nH]3)cc2)CC1 [AEE788] is below 90%. Could you check?
Response: yes (1)

Request: Criterion: cell viability strictly below 90%. Is it met by CSc1ccc2c(c1)N(CCC1CCCCN1C)c1ccccc1S2 (stereo unspecified) [thioridazine] ?
Response: yes (1)

Request: Please let me know if O[C@@H](COc1cccc2ncccc12)CN1CCN([C@@H]2c3ccccc3[C@@H]3[C@H](c4ccccc42)C3(F)F)CC1 [zosuquidar] shows cell viability below 90%.
Response: yes (1)

Request: Bench note: check whether NCCCC[C@H](NC(=O)[C@@H]1CCCN1C(=O)[C@@H]1CSSC[C@H](NC(=O)CNC(=O)CNC(=O)CN)C(=O)N[C@@H](Cc2ccc(O)cc2)C(=O)N[C@@H](Cc2ccccc2)C(=O)N[C@@H](CCC(N)=O)C(=O)N[C@@H](CC(N)=O)C(=O)N1)C(=O)NCC(N)=O [terlipressin] shows cell viability below 90%
Response: no (0)

Request: Say whether its cell viability is strictly beneath 90%. Entry: CC(=O)NCCc1c[nH]c2ccccc12 [N-acetyltryptamine]
Response: no (0)

Request: Field: below-cutoff. Rule: recorded cell viability strictly less than 90%. Subject: O=C(CCCCCCC(=O)Nc1cccnc1)NO [pyroxamide]
Response: yes (1)

Request: Hi there! Is cell viability for N[C@@H](Cc1c[nH]c2ccccc12)C(=O)O [tryptophan] below 90%, do you know?
Response: no (0)

Request: Given the entry CN(C)c1ccc(C(=O)NCCCCCCC(=O)NO)cc1 [M-344] , would its reported cell viability be below 90%?
Response: yes (1)
